Hello, the source for this data is patent US7534455B2, in case you need it.

- assay: Pharmacokinetics of gemcitabine (dFdC) and dFdU in plasma of PAN02 bearing BDF-1 mice
- Type: in vivo
- condition context: BDF-1, mouse, plasma, oral, 600 mg/kg, UV detection; read-out: Cmax, dFdC alone
value type: Cmax (µg/mL)
Just the number in µg/mL, nothing appended.

Reported Cmax for Nc1ccn([C@@H]2O[C@H](CO)[C@@H](O)C2(F)F)c(=O)n1 [dFdC, 2′-deoxy-2′,2′-difluoro-cytidine] : what is it?
230

====

- assay: Pharmacokinetics of gemcitabine (dFdC) and dFdU in plasma of PAN02 bearing BDF-1 mice
- Type: in vivo
- condition context: BDF-1, mouse, plasma, oral, 600 mg/kg, UV detection; read-out: T½, dFdC alone
- Description: Plasma Handling: The mouse plasma was separated from the blood by centrifugation at 10,000 g at 4° C. for 10 min. b) Gemcitabine-containing plasma: The plasma (50 μl) was extracted with 200 μl of acetonitrile (ACN) in the presence of 5 μl of 0.1 mM AZT as an internal standard. […] The resultant analyte was then analyzed by HPLC with UV absorption and/or radioactivity. […]
value type: half-life (min)
Write the answer as a number in min, unit excluded.

Find the recorded half-life belonging to Nc1ccn([C@@H]2O[C@H](CO)[C@@H](O)C2(F)F)c(=O)n1 [dFdC, 2′-deoxy-2′,2′-difluoro-cytidine] and report it.
27

====

- assay: Pharmacokinetics of gemcitabine (dFdC) and dFdU in plasma of PAN02 bearing BDF-1 mice
- Format: in vivo
- condition context: BDF-1, mouse, plasma, oral, 600 mg/kg, Radioactivity detection; read-out: T½, dFdC + PHY906
value type: half-life (min)
Give a bare numeral; the unit min is implied.

Any idea what half-life was measured for Nc1ccn([C@@H]2O[C@H](CO)[C@@H](O)C2(F)F)c(=O)n1 ?
34.2

====

- assay: Pharmacokinetics of gemcitabine (dFdC) and dFdU in plasma of PAN02 bearing BDF-1 mice
- Assay type: in vivo
- condition context: BDF-1, mouse, plasma, oral, 600 mg/kg, Radioactivity detection; read-out: Tmax, dFdC alone (converted)
value type: Tmax (min)
Numeric only. Scale: min

Please give the measured Tmax for this molecule: Nc1ccn([C@@H]2O[C@H](CO)[C@@H](O)C2(F)F)c(=O)n1 [dFdC, 2′-deoxy-2′,2′-difluoro-cytidine]
15

====

- assay: Pharmacokinetics of gemcitabine (dFdC) and dFdU in plasma of PAN02 bearing BDF-1 mice
- Format: in vivo
- condition context: BDF-1, mouse, plasma, oral, 600 mg/kg, Radioactivity detection; read-out: T½, dFdC alone
value type: half-life (min)
Give the value in min but do not write min after it.

Which half-life is reported for this compound? Nc1ccn([C@@H]2O[C@H](CO)[C@@H](O)C2(F)F)c(=O)n1
26.5
